Measurement Description: Body weight, mortality and toxicity of A/J mice exposed to isotretinoin aerosols
Assay type: in vivo
Condition Summary: mouse, in vivo, inhaled or intranasal, 2 mg/kg; high dose, daily exposures for the first two weeks; read-out: mice died
Measurement Type: mortality at 336 h

## Task Please look up its mortality at 336 h: CC1=C(/C=C/C(C)=C/C=C/C(C)=C\C(=O)O)C(C)(C)CCC1 [13-cis RA, 13-cis-Retinoic Acid]
## Result ~35%

====

Measurement Description: Body weight, mortality and toxicity of A/J mice exposed to isotretinoin aerosols
Assay type: in vivo
Condition Summary: mouse, in vivo, inhaled or intranasal, 0.081 mg/kg; mid dose (2/63); read-out: mice died before the end of exposure
Measurement Type: mortality (%)
Your answer should be a plain number; it is taken to be in %.

## Task Please look up its mortality: CC1=C(/C=C/C(C)=C/C=C/C(C)=C\C(=O)O)C(C)(C)CCC1 [13-cis RA, 13-cis-Retinoic Acid]
## Result 3
